Values from ChEMBL document CHEMBL1961873

# target: Cyclin-dependent kinase 6 (Homo sapiens) (UniProt Q00534);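 further: mean percent inhibition of the kinase bound to its cyclin partner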
# Sequence (Q00534 whole entry): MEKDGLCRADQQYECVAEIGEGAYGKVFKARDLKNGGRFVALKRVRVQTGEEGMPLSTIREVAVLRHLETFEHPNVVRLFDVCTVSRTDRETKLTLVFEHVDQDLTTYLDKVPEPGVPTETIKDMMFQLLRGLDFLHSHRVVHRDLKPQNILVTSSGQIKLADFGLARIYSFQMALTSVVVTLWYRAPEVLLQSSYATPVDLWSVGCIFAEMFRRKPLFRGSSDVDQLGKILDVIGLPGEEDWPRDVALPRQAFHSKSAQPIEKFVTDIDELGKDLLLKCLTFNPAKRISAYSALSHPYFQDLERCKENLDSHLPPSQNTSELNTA
# conditions.used: at 1 µM
Lab note: anything with inhibition at or over 20% counts as rule met; the rest go in rule not met.

// known answers, use as guide
NS(=O)(=O)c1ccc(-c2cc3ccncc3cc2OCc2ccccc2)cc1 rule not met
COc1cc2ncn(-c3cc(OCc4ccccc4S(C)(=O)=O)c(C#N)s3)c2cc1OC rule not met
N#Cc1cccc(Nc2nccc(-c3cnn4ncccc34)n2)c1 rule met
c1ccc(Nc2ncc(-c3ccccc3)o2)cc1 rule met

Check this molecule for inhibition at or above 20%: "NS(=O)(=O)c1ccc(Nc2cc(-c3cccc(O)c3)n[nH]2)cc1"
rule met

Check this molecule for inhibition at or above 20%: "CC(C)c1ccc2c(c1)NC(=O)/C2=N/Nc1ccc(S(N)(=O)=O)cc1"
rule met

Check this molecule for inhibition at or above 20%: "Cc1ccc(O)cc1Nc1ccnc2ccc(S(C)(=O)=O)cc12"
rule not met

Check this molecule for inhibition at or above 20%: "CN(C)CCCn1c(-c2nonc2N)nc2cnccc21"
rule not met
